- Test details: Metabolic stability in CD1 mouse liver microsomes assessed as parent compound remaining incubated for 0.5 hrs in presence of beta-NADP by LC-MS/MS analysis
- Type: ADME, Microsome
- Measurement context: read-out: Stability
1.0 if remaining at 0.5 h is below 80%. 0.0 if not; exact matches included in 0.0.

Compound: CCN1CCCC(=O)c2[nH]c3ccccc3c2C1
Label value: 1.0

Compound: CN1C(=O)c2[nH]c3ccccc3c2CN2CC[C@@H]1C2.O=S(=O)(O)O
Label value: 0.0

Compound: CN1C(=O)c2[nH]c3ccccc3c2CN2CC[C@H]1C2.O=S(=O)(O)O
Label value: 0.0

Compound: CN1C(=O)c2[nH]c3ccccc3c2CN2CCC1(C)C2 (racemic)
Label value: 0.0

Compound: CC12CCCN(CC1)Cc1c([nH]c3ccccc13)C2=O (racemic)
Label value: 0.0

Compound: O=C1c2[nH]c3ccccc3c2CN2CCC(C2)N1C1CC1 (racemic)
Label value: 0.0

###

- System: Mus musculus
- Test details: Analgesic activity in oral dosed ddY mouse model of acetic acid-induced writhing pretreated for 30 mins followed by acetic acid challenge and measured for 25 mins
- Format: functional

Compound: C/C=C1/CN2CC[C@H]1C(=O)c1[nH]c3ccccc3c1C2.O=S(=O)(O)O
Quantity unit: mg/kg
ED50: 32
--
Compound: CN1C(=O)c2[nH]c3ccccc3c2CN2CCC1C2.O=S(=O)(O)O (racemic)
Quantity unit: mg/kg
ED50: 21
--
Compound: CN1C(=O)c2[nH]c3ccccc3c2CN2CC[C@H]1C2.O=S(=O)(O)O
Quantity unit: mg/kg
ED50: 12
--
Compound: CN1C(=O)c2[nH]c3ccccc3c2CN2CCC[C@H]1C2
Quantity unit: mg/kg
ED50: 23
--
Compound: CN1C(=O)c2[nH]c3ccccc3c2CN2CC[C@@H]1C2.O=S(=O)(O)O
Quantity unit: mg/kg
ED50: 27

###

- Test details: 1-Octanol/phosphate buffered-saline distribution coefficient, logD of compound at pH 7.4
- Format: physicochemical

Molecule: CN1C(=O)c2[nH]c3ccccc3c2CN2CCC[C@H]1C2
logD: 1
--
Molecule: CCN1C(=O)c2[nH]c3ccccc3c2CN2CCC1C2 (racemic)
logD: 1.1
--
Molecule: O=C1c2[nH]c3ccccc3c2CN2CCC(C2)N1C1CC1 (racemic)
logD: 1.1
--
Molecule: CN1C(=O)c2[nH]c3ccccc3c2CN2CC[C@H]1C2.O=S(=O)(O)O
logD: 0.7
--
Molecule: CCCN1C(=O)c2[nH]c3ccccc3c2CN2CCC1C2 (racemic)
logD: 1.6

###

The listing below reports pIC50 for compounds tested on Mu-type opioid receptor (Homo sapiens).
Sequence (P35372 whole entry): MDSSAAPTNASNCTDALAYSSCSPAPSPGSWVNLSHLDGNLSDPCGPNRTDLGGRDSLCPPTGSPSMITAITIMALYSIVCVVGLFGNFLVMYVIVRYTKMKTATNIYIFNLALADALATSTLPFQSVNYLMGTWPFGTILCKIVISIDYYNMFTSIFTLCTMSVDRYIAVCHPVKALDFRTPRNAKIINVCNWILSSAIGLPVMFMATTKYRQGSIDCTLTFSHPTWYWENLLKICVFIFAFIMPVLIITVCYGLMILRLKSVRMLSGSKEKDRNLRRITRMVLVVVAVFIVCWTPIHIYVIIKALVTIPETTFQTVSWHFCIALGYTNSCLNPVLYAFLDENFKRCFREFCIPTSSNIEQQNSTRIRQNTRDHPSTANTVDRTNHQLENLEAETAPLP
pIC50: −log10 of the molar value.
Recorded endpoint: pIC50

Mol: CN1C(=O)c2[nH]c3ccccc3c2CN2CC[C@@H]1C2.O=S(=O)(O)O
Target: Mu-type opioid receptor (Homo sapiens)
Recorded endpoint: pIC50
Val: < 4.00

Mol: CN1C(=O)c2[nH]c3ccccc3c2CN2CC[C@H]1C2.O=S(=O)(O)O
Target: Mu-type opioid receptor (Homo sapiens)
Recorded endpoint: pIC50
Val: < 4.00

###

- Test details: Metabolic stability in CD1 mouse liver microsomes assessed as parent compound remaining incubated for 0.5 hrs in presence of beta-NADP by LC-MS/MS analysis
- Type: ADME, Microsome
- Measurement context: read-out: Stability
// values below are reported remaining at 0.5 h
Recorded endpoint: remaining at 0.5 h (%)

Compound: C/C=C1/CN2CC[C@H]1C(=O)c1[nH]c3ccccc3c1C2.O=S(=O)(O)O
Recorded endpoint: remaining at 0.5 h
Cmp: =
Val: 34
--
Compound: CN1C(=O)c2[nH]c3ccccc3c2CN2CCC[C@H]1C2
Recorded endpoint: remaining at 0.5 h
Cmp: =
Val: 74
--
Compound: CCN1C(=O)c2[nH]c3ccccc3c2CN2CCC1C2 (racemic)
Recorded endpoint: remaining at 0.5 h
Cmp: =
Val: 91
--
Compound: CN1C(=O)c2[nH]c3ccccc3c2CN2CCC1C2.O=S(=O)(O)O (racemic)
Recorded endpoint: remaining at 0.5 h
Cmp: >
Val: 100
--
Compound: CN1CCCC(=O)c2[nH]c3ccccc3c2C1
Recorded endpoint: remaining at 0.5 h
Cmp: =
Val: 53
--
Compound: CCCN1C(=O)c2[nH]c3ccccc3c2CN2CCC1C2 (racemic)
Recorded endpoint: remaining at 0.5 h
Cmp: =
Val: 72

###

// values below are reported pEC50
- Target: Mu-type opioid receptor (Homo sapiens)
- Test details: Agonist activity at human mu opioid receptor expressed in CHOK1 cells assessed as inhibition of forskolin-induced cAMP production by FRET assay
pEC50: −log10 of the molar value.
Recorded endpoint: pEC50

Mol: CN1C(=O)c2[nH]c3ccccc3c2CN2CC[C@@H]1C2.O=S(=O)(O)O
Recorded endpoint: pEC50
Val: < 4.00
//
Mol: C/C=C1/CN2CC[C@H]1C(=O)c1[nH]c3ccccc3c1C2.O=S(=O)(O)O
Recorded endpoint: pEC50
Val: < 4.00
//
Mol: CN1C(=O)c2[nH]c3ccccc3c2CN2CC[C@H]1C2.O=S(=O)(O)O
Recorded endpoint: pEC50
Val: < 4.00

###

- Target: hERG (KCNH2) (Homo sapiens)
- Test details: Inhibition of human ERG at 10 uM relative to control
Recorded endpoint: inhibition at 10 µM (%)

Molecule: C/C=C1/CN2CC[C@H]1C(=O)c1[nH]c3ccccc3c1C2.O=S(=O)(O)O
Target: hERG (KCNH2) (Homo sapiens)
Quantity unit: %
Val: 63

Molecule: O=C1c2[nH]c3ccccc3c2CN2CCC(C2)N1C1CC1 (racemic)
Target: hERG (KCNH2) (Homo sapiens)
Quantity unit: %
Val: 19

Molecule: CN1C(=O)c2[nH]c3ccccc3c2CN2CC[C@@H]1C2.O=S(=O)(O)O
Target: hERG (KCNH2) (Homo sapiens)
Quantity unit: %
Val: 23

Molecule: CN1CCCC(=O)c2[nH]c3ccccc3c2C1
Target: hERG (KCNH2) (Homo sapiens)
Quantity unit: %
Val: 50

Molecule: CCN1CCCC(=O)c2[nH]c3ccccc3c2C1
Target: hERG (KCNH2) (Homo sapiens)
Quantity unit: %
Val: 73

Molecule: CN1C(=O)c2[nH]c3ccccc3c2CN2CC[C@H]1C2.O=S(=O)(O)O
Target: hERG (KCNH2) (Homo sapiens)
Quantity unit: %
Val: 14

Molecule: O=C1c2[nH]c3ccccc3c2CN2CCC3(CCCN13)C2 (racemic)
Target: hERG (KCNH2) (Homo sapiens)
Quantity unit: %
Val: 13

Molecule: CCCN1C(=O)c2[nH]c3ccccc3c2CN2CCC1C2 (racemic)
Target: hERG (KCNH2) (Homo sapiens)
Quantity unit: %
Val: 43

###

- Target: hERG (KCNH2) (Homo sapiens, UniProt Q12809)
- Sequence (Q12809 whole entry): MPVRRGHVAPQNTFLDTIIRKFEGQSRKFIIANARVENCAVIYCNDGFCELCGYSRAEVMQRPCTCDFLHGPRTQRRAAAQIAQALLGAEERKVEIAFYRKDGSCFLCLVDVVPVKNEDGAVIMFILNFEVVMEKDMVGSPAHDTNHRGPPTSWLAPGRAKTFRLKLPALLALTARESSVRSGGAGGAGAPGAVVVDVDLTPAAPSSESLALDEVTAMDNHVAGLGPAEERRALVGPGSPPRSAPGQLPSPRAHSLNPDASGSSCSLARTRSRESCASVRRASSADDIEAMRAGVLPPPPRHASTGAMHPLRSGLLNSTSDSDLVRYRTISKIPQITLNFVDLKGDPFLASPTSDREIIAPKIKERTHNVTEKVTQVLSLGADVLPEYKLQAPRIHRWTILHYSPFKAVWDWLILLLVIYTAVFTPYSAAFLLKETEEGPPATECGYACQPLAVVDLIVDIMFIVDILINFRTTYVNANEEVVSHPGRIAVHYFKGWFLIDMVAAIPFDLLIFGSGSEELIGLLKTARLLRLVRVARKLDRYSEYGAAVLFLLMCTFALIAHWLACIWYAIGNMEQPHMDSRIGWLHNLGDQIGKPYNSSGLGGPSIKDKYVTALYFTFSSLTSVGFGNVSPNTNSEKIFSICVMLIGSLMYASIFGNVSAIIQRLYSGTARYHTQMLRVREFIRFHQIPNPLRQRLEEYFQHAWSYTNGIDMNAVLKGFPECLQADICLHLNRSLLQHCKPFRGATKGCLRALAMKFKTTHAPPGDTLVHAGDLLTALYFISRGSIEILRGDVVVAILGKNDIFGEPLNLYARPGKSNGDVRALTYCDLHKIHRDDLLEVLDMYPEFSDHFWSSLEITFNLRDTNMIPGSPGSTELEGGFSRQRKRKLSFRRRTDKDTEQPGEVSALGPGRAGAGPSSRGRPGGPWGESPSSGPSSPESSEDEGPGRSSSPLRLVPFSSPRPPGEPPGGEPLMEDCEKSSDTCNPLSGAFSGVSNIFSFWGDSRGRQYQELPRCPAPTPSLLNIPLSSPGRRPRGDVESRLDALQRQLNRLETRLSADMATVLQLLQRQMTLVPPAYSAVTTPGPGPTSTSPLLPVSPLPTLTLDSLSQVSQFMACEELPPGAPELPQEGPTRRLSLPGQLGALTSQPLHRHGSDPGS
- Test details: Inhibition of human ERG at 10 uM relative to control

Compound: CCN1C(=O)c2[nH]c3ccccc3c2CN2CCC1C2 (racemic)
inhibition at 10 µM: 14%

Compound: CN1C(=O)c2[nH]c3ccccc3c2CN2CCC[C@H]1C2
inhibition at 10 µM: 38%

Compound: CN1C(=O)c2[nH]c3ccccc3c2CN2CCC1(C)C2 (racemic)
inhibition at 10 µM: 36%

Compound: CC12CCCN(CC1)Cc1c([nH]c3ccccc13)C2=O (racemic)
inhibition at 10 µM: 88%

Compound: CN1C(=O)c2[nH]c3ccccc3c2CN2CCC1C2.O=S(=O)(O)O (racemic)
inhibition at 10 µM: 26%
